From: the supplement of paper PMC7125110

B1: glmS ribozyme (parent)
chain: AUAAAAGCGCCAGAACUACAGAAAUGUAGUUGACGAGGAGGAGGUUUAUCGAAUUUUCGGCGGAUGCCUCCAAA

Variants of: B1
Test: kcat; higher = faster cleavage; RNA array
Conditions: with glucosamine-6-phosphate
This sample holds only a part of the variants without activity.
Reported kcat values for the following variants.
Give a bare numeral; the unit s⁻¹ is implied.

AUAAAAGCGCCAGAACUACAGAAAUGUAAUUGACGAGAAGGAGGUUUAUCGAAUUUUCGGCGGAUGACUCCAAA ... 1.79e-05
AUAAAAGCGCCACAACUACAGAAAUGUAGUUGACGAGGAGGAGGUUUAUCGAAUUUUCGGCGGAUGCCGCCAAA ... 5.45e-05
AUAAAAGCGCCAGAACUACAGAAAUGUAUUUGACGAGGAGGAGGUUUAGCGAAUUUUCGGCGGAUGCCUCCAAA ... 0.000125
AUAAAAGCGCCAGAGCUACAGAAAUGUAGUUUACGAGGAGGAGGUUUAUCGAAUUUUCGGCGGAUGCCUCCAAA ... 0.00117

Task item: Answer with the recorded kcat for the variant listed here: `AUAAAAGCACCAGAACUACAGAAAUGUAGUUGACGAGGAGGAGGUUUAUCGAAUUUUCGGCGGAUGCCUCUAAA`
Reply: 5.71e-05

Task item: Give reported kcat value for `AUAAAAGCGCCAGAACUACAGAAAUGUAGUUGACGAAGAGGUGGUUUAUCGAAUUUUCGGCGGAUGCCUCCAAA`
Reply: 0.000872

Task item: Provide kcat value for the following variant: `AUAAAAGCGACAGCACUACAGAAAUGUAGUUGACGAGGAGGAGGUUUAUCGAAUUUUCGGCGGAUGCCUCAAAA`
Reply: 2.17e-05

Task item: For the variant `AUAAAAGCGCCAGAACUACAGAAAUGUAGUUGACGAGGAGAAGGAUUAUCGAAUUUUCGGCGGAUGCCUCCAAA` , give its reported kcat.
Reply: 0.000317

Task item: Give a short answer stating reported kcat for `AUAAAAGCGCCAGAACUACAGAAAUGUAGUUAACGAGGAGGAGGUUUAUCGAAUUUUCGGCGGAAGCCUCCAAA` .
Reply: 0.000307
